SYSTEM UNDER TEST: Nitric oxide synthase, inducible (Mus musculus, UniProt P29477)
Sequence (P29477 whole entry): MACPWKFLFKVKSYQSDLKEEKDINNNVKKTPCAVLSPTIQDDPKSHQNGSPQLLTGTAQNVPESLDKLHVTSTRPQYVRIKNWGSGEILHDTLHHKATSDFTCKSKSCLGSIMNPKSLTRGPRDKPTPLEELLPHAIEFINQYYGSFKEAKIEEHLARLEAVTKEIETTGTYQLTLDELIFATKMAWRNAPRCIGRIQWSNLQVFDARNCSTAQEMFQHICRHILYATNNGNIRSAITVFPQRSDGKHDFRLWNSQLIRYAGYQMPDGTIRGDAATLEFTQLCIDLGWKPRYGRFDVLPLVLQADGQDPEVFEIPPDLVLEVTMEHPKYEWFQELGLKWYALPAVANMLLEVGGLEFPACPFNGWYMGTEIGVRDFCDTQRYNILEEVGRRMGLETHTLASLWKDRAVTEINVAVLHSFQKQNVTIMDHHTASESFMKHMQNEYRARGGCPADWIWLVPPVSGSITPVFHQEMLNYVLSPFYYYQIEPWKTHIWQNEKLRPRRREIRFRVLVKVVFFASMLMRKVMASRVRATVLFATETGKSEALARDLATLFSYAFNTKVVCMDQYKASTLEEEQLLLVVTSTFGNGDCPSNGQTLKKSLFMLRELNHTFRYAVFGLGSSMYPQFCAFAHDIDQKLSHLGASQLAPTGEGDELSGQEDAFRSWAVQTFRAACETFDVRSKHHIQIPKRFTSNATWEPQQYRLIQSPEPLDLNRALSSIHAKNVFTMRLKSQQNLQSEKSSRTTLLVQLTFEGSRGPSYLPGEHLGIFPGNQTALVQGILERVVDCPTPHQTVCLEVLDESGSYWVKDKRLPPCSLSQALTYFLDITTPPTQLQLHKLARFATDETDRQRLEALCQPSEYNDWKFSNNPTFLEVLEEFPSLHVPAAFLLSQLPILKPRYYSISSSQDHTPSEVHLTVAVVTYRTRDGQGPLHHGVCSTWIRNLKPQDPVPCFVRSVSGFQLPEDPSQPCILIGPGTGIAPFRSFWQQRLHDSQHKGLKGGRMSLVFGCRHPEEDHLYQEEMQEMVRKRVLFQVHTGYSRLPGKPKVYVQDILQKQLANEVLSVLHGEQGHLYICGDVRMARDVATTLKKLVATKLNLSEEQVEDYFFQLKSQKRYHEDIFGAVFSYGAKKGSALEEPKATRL
Known pKi of a selection of compounds
pKi field: float, defined as -log10 of concentration (mol/L).

>>> observed_value("NC(=O)[C@@H]1C[C@@H](NC(=O)[C@@H](N)CCC/N=C(\\N)N[N+](=O)[O-])CN1")
4.54

Okay, next one:
The compound identified as N=C(NCCC[C@H](N)C(=O)NC1CNC(C(N)=O)C1)N[N+](=O)[O-] (single isomer, unassigned) registered its pKi at 3.70
